Tested on: NALM-6;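 note: ALL cell lines in 384-well plates, five doses spanning 10,000-fold, each plate scaled between vehicle and 100 µmol/L benzalkonium chloride controls, sDSS an adapted area-under-curve metric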
method.notes: selective drug sensitivity score (sDSS, relative to normal bone marrow) (sDSS (score)); higher = more potent and effective on the cell line relative to normal bone marrow cells
condition.description: 72 h
# maps each entry to its selective drug sensitivity score
measurement.kind: selective drug sensitivity score

compound: C/C(=C\c1csc(C)n1)[C@@H]1C[C@@H]2O[C@]2(C)CCC[C@H](C)[C@H](O)[C@@H](C)C(=O)C(C)(C)[C@@H](O)CC(=O)N1 [Ixabepilone] (top concentration 1000 nM)
measurement.kind: selective drug sensitivity score
observed.measurement: 4.48
--
compound: CC(C)(O)CC(=O)NCCn1ccc2ncnc(Nc3ccc(Oc4cccc(C(F)(F)F)c4)c(Cl)c3)c21 [TAK-285] (top concentration 2500 nM)
measurement.kind: selective drug sensitivity score
observed.measurement: 0
--
compound: COC(=O)c1ccc([C@H]2c3[nH]c4ccccc4c3C[C@H](C(=O)OC)N2C(=O)CCl)cc1 [RSL3] (top concentration 10000 nM)
measurement.kind: selective drug sensitivity score
observed.measurement: 1.5
--
compound: N#Cc1ccc(COC[C@H]2O[C@@H](n3c(NCc4ccc(Cl)c(Cl)c4)nc4c(N)ncnc43)[C@H](O)[C@@H]2O)cc1 (top concentration 10000 nM)
measurement.kind: selective drug sensitivity score
observed.measurement: 5.92
--
compound: NCC(=O)Nc1ccc(-n2nc(C(F)(F)F)cc2-c2ccc3c(ccc4ccccc43)c2)cc1 (top concentration 25000 nM)
measurement.kind: selective drug sensitivity score
observed.measurement: 13.3
--
compound: CCc1nc(C(N)=O)c(Nc2ccc(N3CCC(N4CCN(C)CC4)CC3)c(OC)c2)nc1NC1CCOCC1 [Gilteritinib] (top concentration 1000 nM)
measurement.kind: selective drug sensitivity score
observed.measurement: -2.52
